Where do the numbers come from? From the supplement of paper PMC7125110.

B1: glmS ribozyme (parent)
chain: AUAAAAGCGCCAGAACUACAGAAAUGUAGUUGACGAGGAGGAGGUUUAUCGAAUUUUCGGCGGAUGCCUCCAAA

# Variants of: B1
# assay.info: self-cleavage kobs at 2500 uM GlcN6P; higher = faster cleavage; RNA array
# measurement.parameters: with glucosamine-6-phosphate
This sample holds only a part of the variants without activity.
outcome.measure: self-cleavage kobs at 2500 uM GlcN6P

A12G G13C G29A G40A U45C; < 1e-05 s⁻¹
G66U C71U; 0.00174 s⁻¹
A42U U56A; 4.97e-05 s⁻¹
U56C C67A; 3.57e-05 s⁻¹

Record C8A C11G G59C C61U . Reported self-cleavage kobs at 2500 uM GlcN6P: < 1e-05 s⁻¹

Record G29U A42C C58A C67G . Reported self-cleavage kobs at 2500 uM GlcN6P: < 1e-05 s⁻¹
